Test system: Colon cancer organoid
TEST_DESCRIPTION: Identification of compartment-specific drug sensitivities in O06 CRC organoid-stroma F06 CAF co-cultures. Organoid is transduced with Lucferase2-P2A-EGFP lentivirus, fibroblast with Renilla-dsRed lentivirus. Dual-Glo Luciferase assay is used to report viability data.
Assay type: functional, Homo sapiens
Parameters: dose or concentration left out as unconfirmed
CONDITION_PARAMETERS: Transduced with Renilla-dsRed lentivirus
READOUT: Cell Viability (%)
Supply the numeric figure in %, leaving out any unit text.

COMPOUND: CN1CCN(c2cnc3c(C4CCN(C(=O)c5ccc(OC(F)(F)F)cc5N)CC4)ncnc3c2)CC1
UNIT_INFO: %
Cell Viability: 132.533
//
COMPOUND: O=C(/C=C/N1C[C@H]2C[C@@H]1CN2c1ccccn1)c1ccccc1O
UNIT_INFO: %
Cell Viability: 121.159
//
COMPOUND: Cl.Cl.NC1(c2ccc(-c3nc4ccn5c(=O)[nH]nc5c4cc3-c3ccccc3)cc2)CCC1
UNIT_INFO: %
Cell Viability: 67.7481
//
COMPOUND: CC(C)(C#Cc1ccc(NC(=O)COc2ccccc2C(=O)c2ccccc2)c(Cl)c1)C(=O)O
UNIT_INFO: %
Cell Viability: 131.731
//
COMPOUND: Cc1cc(CN)cc(C)c1-c1ncn(C)c1-c1cncn1C
UNIT_INFO: %
Cell Viability: 141.638

Tested on Colon cancer organoid, the item Cc1cc(C)cc([C@H]2c3cc(C)ccc3NC(=O)CN2C(=O)c2ccc(Br)s2)c1 showed Cell Viability equal to 115.465

So the reported Cell Viability for C[C@H]1CC(=O)Nc2cc(C(=O)NCCC3CC3)ccc2N1C(=O)N1CC2CC2C1 (stereo partly drawn) , on Colon cancer organoid, turned out to be 132.849

The compound CCNC(=O)c1cc2c(-c3cc(C(C)(C)O)ccc3Oc3c(C)cc(F)cc3C)cn(C)c(=O)c2[nH]1 , when measured on Colon cancer organoid, yielded Cell Viability of 287.135

For the compound C[C@@]1(Cc2ccc(C#N)cc2)C(=O)N(c2cc(Cl)cc(Cl)c2)c2ncc(C(=O)NC3(c4nc(C5CCC5)no4)CC3)n21 , the measured Cell Viability on Colon cancer organoid was 98.3986

Form field Cell Viability for item Clc1cc2c(NC3CCCC3)nnc(-c3ccncc3)c2cc1Cl on Colon cancer organoid: 133.642

Bench note, Colon cancer organoid: O=c1nc(-c2ccccn2)sc2ccccc12 , Cell Viability reads 128.099

The measured Cell Viability that CCn1cc(-c2cccc(C(F)(F)F)c2)c2sc(C(=N)NC3CCS(=O)(=O)CC3)cc2c1=O showed for Colon cancer organoid is 165.165

The compound CCN(CC)S(=O)(=O)Nc1cccc(-c2ccc3c(NC(=O)C4CC4)n[nH]c3c2)c1 on Colon cancer organoid: Cell Viability was 107.031

The compound C[C@@H]1CCNC(=O)c2cc3ccc(C(=O)Nc4nc5ccccc5n4CCCN(C)C)cc3n21 , tested on Colon cancer organoid, showed Cell Viability of 63.6239

Measured Cell Viability for this entry C[C@@H]1CCc2ncc(F)cc2[C@H]2CCCN2c2ccn3ncc(c3n2)C(=O)N1 on Colon cancer organoid: 118.761

# lookup: Cc1cnc(-c2cc(Cl)ccc2F)cc1-n1c(=O)n(CC(N)=O)c2cnccc21 on Colon cancer organoid, Cell Viability = 213.932

Bench note, Colon cancer organoid: Cl.O=C(O)c1cc(-c2ccc(C3CCNCC3)cc2)c2ccc(-c3ccc(C(F)(F)F)cc3)cc2c1 , Cell Viability reads 117.47

Tested system Colon cancer organoid; Cell Viability recorded for CNCCN1CCC(OCc2ccccc2)CC1 was 144.179

// data source = ChEMBL document CHEMBL5608141
